System: HOP-92
Assay: NCI tumour cell line growth inhibition, 48 h
The source made the active and inactive calls. Rule as the data show it: active = GI50 up to about 1.1 µM and inactive = higher.
Give measured GI50 for each item. Keep answers brief.

Before answering, review these 6 worked examples.
CN1C/C(=C\c2ccc(Cl)cc2)C(=O)/C(=C/c2ccc(Cl)cc2)C1 :: > 26.9 µM (inactive)
C(=C\c1ccco1)/c1cccc(/C=C/c2ccco2)n1 :: > 50 µM (inactive)
CSc1nc(NC2OC(COC(C)=O)C(OC(C)=O)C(OC(C)=O)C2OC(C)=O)c2c(OC(C)=O)c(C)c(=O)oc2n1 (configuration not stated) :: > 100 µM (inactive)
NC(=O)Nc1c(Cl)cc(S(N)(=O)=O)cc1Cl :: > 100 µM (inactive)
CC(=O)O[C@H]1C(=O)[C@@]2(C)[C@H]([C@H](OC(=O)c3ccccc3)[C@]3(O)C[C@H](OC(=O)[C@H](OC(=O)OCCC(O)CO)[C@@H](NC(=O)c4ccccc4)c4ccccc4)C(C)=C1C3(C)C)[C@]1(OC(C)=O)CO[C@@H]1C[C@@H]2O (some centres not stated) :: 12.8 µM (inactive)
COc1cccc(C=C(C#N)C#N)c1OC :: > 100 µM (inactive)

Switching to the query record.
In: Query: GI50; subject: CC(C)C1=CC23CCC4C(C)(C(=O)O)CCCC4(C)C2CC1C1C(=O)N(c2ccccc2N2C(=O)C4C5CC6C7(C)CCCC(C)(C(=O)O)C7CCC6(C=C5C(C)C)C4C2=O)C(=O)C13 (configuration not stated)
Out: 17.9 µM (inactive)

====

Give measured GI50 for each item. Keep answers brief.
System: SN12C
Test: NCI tumour cell line growth inhibition, 48 h
Activity calls are given as the source filed them. Cut-off read from the data, not from the text of the source: active = GI50 up to about 1.1 µM and inactive = higher.

Before answering, review these 3 worked examples.
CCOP(=O)(CN=C(c1ccccc1)c1ccccc1)OCC :: > 100 µM (inactive)
CN(C)c1ccc(C2CC(=O)CC(c3ccc(N(C)C)cc3)C23C(=O)NC(=O)NC3=O)cc1 (stereo unspecified) :: > 25 µM (inactive)
Cc1c(C(=O)O)n(C)c(=O)n(C)c1=O :: > 100 µM (inactive)

Report GI50 for each item below.
1. CCCc1cc(=O)oc2c3c(c4c(c12)OC(C)(C)C=C4)O[C@@H](C)[C@H](C)C3=O
2. CCOC(=O)c1c(N)sc2c1C(C(=O)OCC)CC2 (stereo unspecified)
3. O=C(CNC(=O)OCc1ccccc1)Oc1ccccc1

Out:
18.7 µM (inactive)
40.5 µM (inactive)
> 100 µM (inactive)

====

Tested on: K562
Assay: NCI tumour cell line growth inhibition, 48 h
Calls of active or inactive are those of the source. Cut-off read from the data, not from the text of the source: active = GI50 up to about 1.1 µM and inactive = higher.
TEST READOUT: GI50

Before answering, review these 6 worked examples.
Cc1cc2oc(C)c(S(=O)(=O)NC(=O)Nc3ccc(Cl)cc3)c(=O)c2c(=O)o1 :: > 100 µM (inactive)
CC(C)(C)[Si](C)(C)OCC1OC(n2cc(F)c(=O)[nH]c2=O)CC1O[Si](C)(C)C(C)(C)C (configuration not stated) :: 4.14 µM (inactive)
CN1C(=O)C23CCCCC2CC1(c1ccccc1)S3 (configuration not stated) :: 71.1 µM (inactive)
Cc1ccc(S(=O)(=O)n2c3c(c4ccccc42)CCN2C[C@H]([C@H](C)Br)CC[C@@H]32)cc1 :: 25.7 µM (inactive)
CCCCC(=C=C1CCCCC1O)C1CCCN1C(=O)OC(C)(C)C (configuration not stated) :: 17.5 µM (inactive)
Cc1ccccc1NC(=O)C(=O)CC(=O)c1c(C)[n+]([O-])c2ccccc2[n+]1[O-] :: > 100 µM (inactive)

Report GI50 for each item below.
1. O=C(O)C1CC(O)CN1 (configuration not stated)
2. COc1ccccc1CCc1cc(OC)c(OC)c(OC)c1
3. C/C(=N/S(=O)(=O)c1ccc(Cl)c(Cl)c1)OCC(C)(C)C

Out:
["> 100 µM (inactive)", "33 µM (inactive)", "> 100 µM (inactive)"]

Report GI50 for each item below.
1. CC(C)(C)/N=c1/n(C(C)(C)C)oc(=O)n1C(C)(C)C
2. COC(=O)c1ccc([N+](=O)[O-])c(O)c1
3. NC(=O)/C=C/C(=O)O
4. Cc1c(Cl)c(=O)oc2cc(OCC(=O)c3ccccc3)ccc12
5. CC(=O)Nc1ccc(/C=C(\NC(=O)c2ccccc2)c2nc3ccc4c(c3[nH]2)C(=O)c2ccccc2C4=O)cc1
6. COc1ccc(-c2ccccc2)c2[nH]c3c(c12)CCNC3=O
7. NC1=NC(=O)[C@H](CSCc2ccccc2)N1C(=O)OCc1ccccc1
8. NC(=O)c1ccc(NS(=O)(=O)c2ccc(N)cc2)nc1

Out:
1: > 100 µM (inactive); 2: > 100 µM (inactive); 3: > 5000 µM (inactive); 4: > 100 µM (inactive); 5: 19.9 µM (inactive); 6: > 100 µM (inactive); 7: > 100 µM (inactive); 8: > 100 µM (inactive)

Report GI50 for each item below.
1. O=C1OCC(c2ccc(Cl)cc2)=C1Cl
2. C[C@]12CC[C@@H]3c4ccc(OC(=O)c5ccccc5)cc4CC[C@H]3[C@@H]1CCC2OC(=O)c1cccc2c(=O)c3ccccc3[nH]c12 (some centres not stated)
3. CC(=O)c1c(C(F)(F)F)[n+]([O-])c2cc(Cl)c(Cl)cc2[n+]1[O-]
4. Cc1ccc(C#CS(=O)(=O)C(F)(F)F)cc1
5. COc1ccc(/C=C2\C(=O)N(C(=O)c3ccc(NC(C)=O)cc3)N=C2C)cc1

Out:
28.2 µM (inactive)
60 µM (inactive)
0.977 µM (active)
> 100 µM (inactive)
> 100 µM (inactive)

====

Tested on: NCI-H226
Experiment: NCI tumour cell line growth inhibition, 48 h
Active and inactive are the calls of the source. No stated cut-off is given here; in the data, active = GI50 up to about 1.1 µM and inactive = higher.
TEST READOUT: GI50

Before answering, review these 5 worked examples.
CC(Cc1ccc(O)cn1)(NC(=O)c1ccccc1)C(=O)O (configuration not stated) :: > 100 µM (inactive)
CC(C)CNc1nc(N)nc(O)c1NC=O :: > 100 µM (inactive)
O=C1/C(=C\c2cccc(Oc3ccccc3)c2)SC(c2ccccc2)N1c1ccccc1Cl (configuration not stated) :: 26.2 µM (inactive)
CCCCCC(=O)OCC1(CO)C/C(=C/CC(C(C)C)C(C)C)C(=O)O1 (configuration not stated) :: > 75 µM (inactive)
O=C(c1ccco1)N1CCN(C(=O)c2ccco2)C1=S :: 28.7 µM (inactive)

Report GI50 for each item below.
1. CC(C)(C)OC(=O)C1CC[C@@H](CC(=O)Oc2ccc([N+](=O)[O-])cc2)N1 (some centres not stated)
2. COC1OC(CO)C(O)C(OC(C)=O)C1NC(=O)N(CCCl)N=O (configuration not stated)

Out:
["> 100 µM (inactive)", "> 100 µM (inactive)"]

====

System: PC-3
Assay: NCI tumour cell line growth inhibition, 48 h
Calls of active or inactive are those of the source. Rule as the data show it: active = GI50 up to about 1.1 µM and inactive = higher. Non-standard residues stand in square brackets, D forms with d. Residues, ends and D or L forms follow the SMILES beside them. *: point of attachment. Benzoyl(4-OMe) = COc1ccc(C(=O)*)cc1; 2Thi = N[CH](Cc1cccs1)C(=O)O
TEST READOUT: GI50

Before answering, review these 2 worked examples.
CCOC(=O)/C(C(C)=O)=C(\OC(C)=O)c1ccncc1C(=O)O :: > 100 µM (inactive)
Cc1ccc(/C=C2\NC(=S)N(CN3CCCCC3)C2=O)cc1 :: 61.4 µM (inactive)

Report GI50 for each item below.
1. Cc1cc2oc(C)c(S(=O)(=O)NC(=O)Nc3ccc(Cl)cc3)c(=O)c2c(=O)o1
2. CC(=O)OC/C=C/[C@H](O[Si](C)(C)C(C)(C)C)[C@@H](O)/C=C/COC(C)=O
3. CC(=O)O[C@H]1C[C@@H](OC(C)=O)[C@@](C)(O)[C@@H]2[C@@H](OC(C)=O)[C@@]3(O)[C@H](/C=C(/CCl)[C@H]4O[C@H]4[C@@H](OC(C)=O)[C@@]12C)OC(=O)[C@@H]3C
4. CCCCCCC1OC23OC1CCC2C(O)CCC3O (stereo not given)
5. COc1ccc(C2C3=C(COC3=O)Oc3cc4c(cc32)OCO4)c(OC)c1 (stereo not given)

Out:
1. 83.6 µM (inactive)
2. > 100 µM (inactive)
3. > 25 µM (inactive)
4. > 100 µM (inactive)
5. 6.75 µM (inactive)

Report GI50 for each item below.
1. CCNc1nc(N)c(C(=O)c2ccc(Cl)cc2)s1
2. O=C1c2cc(Cl)ccc2N=C(NCCCl)C2CSCN12 (stereo not given)

Out:
["39.9 µM (inactive)", "> 100 µM (inactive)"]

Report GI50 for each item below.
1. COC(=O)c1ccc([N+](=O)[O-])c(O)c1
2. C[C@]12CC/C(=N\O)C=C1CC[C@@H]1[C@@H]2CC[C@]2(C)C(=N/O)/C(=C/c3cccnc3)C[C@@H]12
3. CCC(C)C(NC(=O)C(Cc1cccs1)NC(=O)C(CC(C)C)NC(=O)C(CC(C)C)NC(=O)C(CCCCN)NC(=O)C(CCCNC(=N)N)NC(=O)c1ccc(OC)cc1)C(=O)NC(CC(C)C)C(N)=O (stereo not given) ({Benzoyl(4-OMe)}-RKLL[2Thi]IL-NH2; configuration not given here)
4. CC(C)(C)OC(=O)N1C(OP(=O)(Oc2ccccc2)Oc2ccccc2)=CSc2ccccc21
5. C[C@]12CC[C@@H]3c4ccc(OC(=O)c5ccccc5)cc4CC[C@H]3[C@@H]1CCC2OC(=O)c1cccc2c(=O)c3ccccc3[nH]c12 (stereo not given in full)

Out:
["> 100 µM (inactive)", "6.95 µM (inactive)", "> 100 µM (inactive)", "47.8 µM (inactive)", "13.4 µM (inactive)"]

In: Query: GI50; subject: Nc1ccc(N(S(=O)(=O)c2ccccc2)S(=O)(=O)c2ccccc2)c(Cl)c1
Out: 35.6 µM (inactive)
